These measurements were taken from paper PMC6658769.

Protocol: clinical
Conditions: both, human, in vivo, po, 15 mg
Measure: Cmax (µg/mL)

Structure string	Quantitative result
NC[C@H]1OB(O)c2c(OCCO)ccc(Cl)c21	0.178

###

Protocol: clinical
Conditions: human, in vivo, po, 15 mg, AUC(Ro), geometric LS mean, Test

Structure string	AUC [ng·h/mL]
NC[C@H]1OB(O)c2c(OCCO)ccc(Cl)c21	4460

###

Protocol: clinical
Conditions: both, human, in vivo, po, 5 mg

Compound	Cmax, ng/mL
NC[C@H]1OB(O)c2c(OCCO)ccc(Cl)c21 [GSK3036656]	49.1

###

Protocol: clinical
Conditions: human, in vivo, po, 15 mg, AUC(Ro), geometric LS mean, Ref
Measure: AUC (ng·h/mL)

Compound	Quantitative result
NC[C@H]1OB(O)c2c(OCCO)ccc(Cl)c21 [GSK3036656]	1890

###

Protocol: clinical
Conditions: human, in vivo, po, 25 mg
Measure: AUC(0-inf) (ng·h/mL)

Structure string	Measure	Quantitative result
NC[C@H]1OB(O)c2c(OCCO)ccc(Cl)c21	AUC(0-inf)	6560

###

Protocol: clinical
Conditions: human, in vivo, po, 5 mg, Cmax, geometric LS mean, Ref

Compound	Cmax
NC[C@H]1OB(O)c2c(OCCO)ccc(Cl)c21 [GSK3036656]	48.4 ng/mL

###

Protocol: clinical
Conditions: human, in vivo, po, 5 mg

Structure string	Cmax at 14 days (ng/mL)
NC[C@H]1OB(O)c2c(OCCO)ccc(Cl)c21	97

###

Protocol: Nonclinical toxicity studies (NOAEL exposure)
Assay type: in vivo
Conditions: plasma, oral

Structure string	AUC, ng·h/mL
NC[C@H]1OB(O)c2c(OCCO)ccc(Cl)c21	4900

###

Protocol: clinical
Conditions: human, in vivo, po, 5 mg, AUC0–t, geometric LS mean, Ref
Measure: AUC(0-t)

Structure string	Result
NC[C@H]1OB(O)c2c(OCCO)ccc(Cl)c21	732 ng·h/mL

###

Protocol: in vitro
Format: in vitro ADME
Conditions: rat, plasma

Structure string	fraction unbound
NC[C@H]1OB(O)c2c(OCCO)ccc(Cl)c21	0.688

###

Protocol: clinical
Conditions: human, in vivo, po, 5 mg, Geometric mean AUC0–τ (%CVb)

Compound	AUC (ng·h/mL)
NC[C@H]1OB(O)c2c(OCCO)ccc(Cl)c21 [GSK3036656]	1390

###

Protocol: clinical
Conditions: human, in vivo, po, 15 mg, Geometric mean AUC0–τ (%CVb)
Measure: AUC (ng·h/mL)

Structure string	Units	Quantitative result
NC[C@H]1OB(O)c2c(OCCO)ccc(Cl)c21	ng·h/mL	4460

###

Protocol: FTIH part B: plasma pharmacokinetics and accumulation after repeat dose
Conditions: human, po, 5 mg

Structure string	half-life at 14 days
NC[C@H]1OB(O)c2c(OCCO)ccc(Cl)c21	44 h

###

Protocol: FTIH part A: plasma pharmacokinetics after single dose
Conditions: human, po, 25 mg

Structure string	Units	half-life
NC[C@H]1OB(O)c2c(OCCO)ccc(Cl)c21	h	49.9

###

Protocol: clinical
Conditions: human, in vivo, po, 15 mg

Compound	Cmax at 14 days (ng/mL)
NC[C@H]1OB(O)c2c(OCCO)ccc(Cl)c21 [GSK3036656]	310

###

Protocol: Chronic lung infection model in mice
Format: in vivo, C57BL/6 mice
Conditions: C57BL/6, mouse, in vivo, 1.3 mg/kg, read-out: plasma steady-state AUC associated with EDmax (AUCEDmax), target exposure for efficacy in humans
Measure: AUC (ng·h/mL)

Structure string	Measure	Quantitative result
NC[C@H]1OB(O)c2c(OCCO)ccc(Cl)c21	AUC	1740
